measured-on: ^CBCL-W binding to ^VBAD (Mus musculus, UniProt P70345)
Sequence (P70345 whole entry): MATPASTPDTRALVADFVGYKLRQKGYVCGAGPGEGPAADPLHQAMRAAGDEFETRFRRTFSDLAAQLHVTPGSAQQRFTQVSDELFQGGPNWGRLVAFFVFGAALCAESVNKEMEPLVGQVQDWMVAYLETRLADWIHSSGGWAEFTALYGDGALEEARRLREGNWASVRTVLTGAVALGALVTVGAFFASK
protocol-text: qF^3 live-cell binding curves, ^VBAD with ^CBCL-W
Format: cell-based, mouse BCL-W, human BAD
parameter-measured: inhibition of ^CBCL-W binding to ^VBAD, in words

- compound: "O=C(c1cc(-c2cc3c(cc2C(=O)N2Cc4ccccc4C[C@H]2CN2CCOCC2)OCO3)n2c1CCCC2)N(c1ccccc1)c1ccc(O)cc1 [S55746]"
  result: "inhibited"
- compound: "Cc1c(-c2ccc(N3CCc4cccc(C(=O)Nc5nc6ccccc6s5)c4C3)nc2C(=O)O)cnn1CC12CC3CC(CC(C3)C1)C2 [A-1331852]"
  result: "inhibited"
- compound: "CN(CCO)CC[C@H](CSc1ccccc1)Nc1ccc(S(=O)(=O)NC(=O)c2ccc(N3CCC([C@@H](O)c4ccccc4-c4ccc(Cl)cc4)CC3)cc2)cc1S(=O)(=O)C(F)(F)F [AZD4320]"
  result: "inhibited"

---

measured-on: ^CBCL-XL (Homo sapiens, UniProt Q07817)
Sequence (Q07817 whole entry): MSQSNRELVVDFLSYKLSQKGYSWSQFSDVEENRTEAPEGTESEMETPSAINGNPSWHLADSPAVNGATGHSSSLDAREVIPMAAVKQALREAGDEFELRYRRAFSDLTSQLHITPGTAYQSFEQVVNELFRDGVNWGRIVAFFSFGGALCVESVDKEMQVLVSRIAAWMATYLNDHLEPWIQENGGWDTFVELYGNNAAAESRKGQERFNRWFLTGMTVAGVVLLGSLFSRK
protocol-text: qF^3 screen, ^VBH3 proteins binding to ^CBCL-XL, overall statement
Format: cell-based
condition-label: live cells
parameter-measured: inhibition of ^VBH3 binding to ^CBCL-XL, in words

- molecule: "Cc1c(C(=O)NS(C)(=O)=O)c(-c2cccc(N3CCN(c4ccc(NS(=O)(=O)c5ccc(N[C@H](CCN(C)C)CSc6ccccc6)c([N+](=O)[O-])c5)cc4)CC3)c2)c(-c2ccc(Cl)cc2)n1C(C)C [BM1074]"
  result: "did not affect"
- molecule: "CN1CCN(c2ccc3[nH]c(-c4ccc5[nH]c(-c6ccc(O)cc6)nc5c4)nc3c2)CC1 [BXI-72, bisbenzimide H33258]"
  result: "did not affect"
- molecule: "CCCCC1C(=O)OC(C)C(NC(=O)c2cccc(NC=O)c2OC)C(=O)OC(C)C1OC(=O)CC(C)C (stereo not shown) [2-MeO-AA3, 2-meoxy-antimycin A3]"
  result: "did not affect"
